Read-out: Urokinase-type plasminogen activator receptor (uPAR), PLAUR (gene 5329)
Experiment: BSK_4H_uPAR: BioMAP Diversity Plus: 4H Assay for Urokinase-type plasminogen activator receptor (uPAR) Biomarker Activity (AID 2283030)
Conditions: primary human endothelial cells (HUVEC); actives raise or lower the signal
Calls of active or inactive are those of the source. Rule for the calls: active = hit-call score of the fitted dose curve at least 0.9, where 1 is the maximum; inactive = score below 0.9.
Pick one: Y = active, N = inactive

Illustrative cases are given below, each with its answer.
Compound	Assigned Label
O=C(c1ccc(OCCN2CCCCC2)cc1)c1c(-c2ccc(O)cc2)sc2cc(O)ccc12	Y
CC(C)(C)c1cccc(O)c1	N
C=C1CC/C=C(\C)CC[C@@H]2[C@@H]1CC2(C)C	Y
CCCCCCCCCC(=O)OCC	Y
CC(C)(CO)CO	N

Task item: Per the records of this test, what outcome belongs to COC(=O)c1ccc(C(=O)OC)cc1 ?
Reply: N

Task item: Fill in: this test's call for CC(=O)OC(C)(C)C1CC=C(C)CC1 (configuration not stated) is ___
Reply: Y

Task item: Tell me the assay call for O=S1(=O)CC(Cl)(Cl)C(Cl)(Cl)C1 please.
Reply: Y

Task item: Please state the recorded outcome for this compound: CC(C)Cc1ccc(C(C)C(=O)O)cc1 (configuration not stated)
Reply: N

Task item: How was CCOC(=O)CCCCCCCCC(=O)OCC classified in this test?
Reply: N

Task item: Give the logged outcome of this assay for the following compound: CCOC(=O)C=Cc1ccccc1
Reply: N

Task item: Query: recorded result category for C=C(F)C(=O)OC(C(F)(F)F)C(F)(F)F in this test
Reply: N

Task item: Assay outcome for CC(=O)CCC=C(C)CCC=C(C)C : what was it?
Reply: N

Task item: For OCCN1CCOCC1 , which call appears in the assay record?
Reply: N

Task item: Assay outcome for O=S(=O)(O)C(F)(F)C(F)(F)OC(F)(F)C(F)(F)F : what was it?
Reply: N

Task item: I'd appreciate the recorded outcome for C=C(C)C(=O)OCCC(F)(F)C(F)(F)C(F)(F)C(F)(F)C(F)(F)C(F)(F)C(F)(F)C(F)(F)F from this test.
Reply: N

Task item: Lab log entry: Nc1ccc(N)c([N+](=O)[O-])c1 — outcome as called in the assay?
Reply: N
